These measurements were taken from patent US20240415914A1.

format: physicochemical; conditions: stored at room temperature (21-25° C.), day 22
metric: Stability in Powder Concentrate (content by LCMSMS) (mg/g powder)

* Cc1c(C)c2c(c(C)c1O)CC[C@@](C)(CCC[C@H](C)CCC[C@H](C)CCCC(C)C)O2 [α-Tocopherol] | 4.94
* C=C(C)[C@@H]1CCC(C)=C[C@H]1c1c(O)cc(CCCCC)cc1O [CBD, cannabidiol, reference compound] | 5.84
* C=C(C)[C@@H]1CCC(C)=C[C@H]1c1c(O)cc(CCC)cc1O [CBDV, cannabidivarin] | 0.049

###

test: Stability of cannabinoid and Vitamin E components of Beverage 2 (AB Red) stored at 8° C. and 21-25° C., LCMSMS over 570 days; conditions: 8° C., 9 days
As shown below, each of these compounds has a reported Stability of Cannabinoids in AB Red value.
metric: Stability of Cannabinoids in AB Red (µg/mL)

- CCCCCc1cc2c(c(O)c1C(=O)O)[C@@H]1C=C(C)CC[C@H]1C(C)(C)O2 [D9 THCA, delta-9-tetrahydrocannabinolic acid]: 1.36
- CCCCCc1cc(O)c2c(c1)OC(C)(CCC=C(C)C)C=C2 (centres unmarked): 0.288
- CCCCCc1cc(O)c(C/C=C(\C)CCC=C(C)C)c(O)c1: 4.72
- C=C(C)[C@@H]1CCC(C)=C[C@H]1c1c(O)cc(CCC)cc1O: 0.201
- CCCc1cc(O)c2c(c1)OC(C)(C)[C@@H]1CCC(C)=C[C@@H]21 [THCV, delta-9-tetrahydrocannabivarin]: 3.14
